Every entry's value here was drawn from patent US6929685B2.

System: fouling organisms
ASSAY_PROTOCOL: Raft panel static immersion test of antifouling paints: overall
Set-up: key: good (G); satisfactory (S); failure (F)
RECORDED_CONDITIONS: model coating 1B: 35% Cu2O + 2% of compound; Dutch harbor, sea water
Description: The prepared paints have been evaluated on can stability, adhesion and film defects. The antifouling performance has been tested by application of the paints on raft panels. At first the steel panels had been protected with a standard anticorrosive system for marine environments (300 μm in dft). The to be tested antifouling paint had been applied in 2 layers with a total dry film thickness between 200 and 300 μm. […]
READOUT: Performance (1 yr immersed) Overall

Some solved cases for reference:
O=CNCCCCCCCCCCCBr : S
C=CCCCCCCCCCNC=O : S
CCCCCCCCCCCNC=O : S
COC(=O)NCCCCCCBr : S

Entry O=CNCCCCCCCCCC(Br)CBr (centres unmarked) has what Performance (1 yr immersed) Overall?
S

----------
System: slime
ASSAY_PROTOCOL: Raft panel static immersion test of antifouling paints: slime
Parameters: key: G: Not present; Some light slime; F: Overall covered
RECORDED_CONDITIONS: model coating 10B: 8% of compound as only biocide; Dutch harbor, sea water
READOUT: Performance (1 yr immersed) Slime

Some solved cases for reference:
CCCCCCCCCCCNC=O : S
O=CNCCCCCCCCCC(Br)CBr (centres unmarked) : S
C=CCCCCCCCCCNC=O : S
O=CNCCCCCCCCCCCBr : S

Entry COC(=O)NCCCCCCBr has what Performance (1 yr immersed) Slime?
S

----------
Tested on: algae
ASSAY_PROTOCOL: Raft panel static immersion test of antifouling paints: algae
Parameters: key: G: Not present; Some light slime; F: Overall covered
RECORDED_CONDITIONS: model coating 1C: 35% Cu2O + 3% of compound; Dutch harbor, sea water
READOUT: Performance (1 yr immersed) Algae

Some solved cases for reference:
CCCCCCCCCCCNC=O : G
C=CCCCCCCCCCNC=O : G
COC(=O)NCCCCCCBr : G
O=CNCCCCCCCCCCCBr : G

Now turn to the next molecule.
Entry O=CNCCCCCCCCCC(Br)CBr (centres unmarked) has what Performance (1 yr immersed) Algae?
G

----------
Tested on: slime
ASSAY_PROTOCOL: Raft panel static immersion test of antifouling paints: slime
Set-up: key: G: Not present; Some light slime; F: Overall covered
RECORDED_CONDITIONS: model coating 7B: 2% of compound + 3% Irgarol; Dutch harbor, sea water
READOUT: Performance (1 yr immersed) Slime

Some solved cases for reference:
COC(=O)NCCCCCCBr : S
CCCCCCCCCCCNC=O : S
O=CNCCCCCCCCCC(Br)CBr (centres unmarked) : S
O=CNCCCCCCCCCCCBr : S

Now turn to the next compound.
Entry C=CCCCCCCCCCNC=O has what Performance (1 yr immersed) Slime?
S

----------
Tested on: fouling organisms
ASSAY_PROTOCOL: Raft panel static immersion test of antifouling paints: overall
Parameters: key: good (G); satisfactory (S); failure (F)
RECORDED_CONDITIONS: model coating 1A: 35% Cu2O + 1% of compound; Dutch harbor, sea water
Text: The prepared paints have been evaluated on can stability, adhesion and film defects. The antifouling performance has been tested by application of the paints on raft panels. At first the steel panels had been protected with a standard anticorrosive system for marine environments (300 μm in dft). The to be tested antifouling paint had been applied in 2 layers with a total dry film thickness between 200 and 300 μm. […]
READOUT: Performance (1 yr immersed) Overall

COC(=O)NCCCCCCBr : S
O=CNCCCCCCCCCCCBr : S
C=CCCCCCCCCCNC=O : S
CCCCCCCCCCCNC=O : S

Now turn to the next molecule.
Entry O=CNCCCCCCCCCC(Br)CBr (centres unmarked) has what Performance (1 yr immersed) Overall?
S
